- METHOD: inhibitors of the yeast RAM network, pilot screen, dse1pr::URA3 reporter, 5-FOA selection (AID 869);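 further: 0% = DMSO wells with no growth and 100% = 10 µM 1-NA-PP1 with full growth; RAM network block rescues cells from 5-FOA so hits raise OD615 growth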
- MEASUREMENT CONTEXT: S. cerevisiae dse1pr::URA3 5-FOA growth, OD615, 2 d; at 10 µM; hits give high values; strain carries analog-sensitive mutant Cbk1 kinase
Hi all, reminder that labels come from inhibition, split as bucket 1 (below 0.8%), bucket 2 (0.8% to below 2%), bucket 3 (2% or more)

For the record "COc1ccccc1-c1c(C#N)c(SCC(=O)N2CCCC2)nc(C)c1C(N)=O" , report the class its inhibition corresponds to.
bucket 2

For the record CCOc1ccc(C2C(C(=O)Nc3ccc(F)cc3)=C(C)Nc3nc(CCCO)nn32)cc1 (stereo unspecified) , report the class its inhibition corresponds to.
bucket 2

For the record "CCOC(=O)c1ccc(S(=O)(=O)N2CCN(CCC#N)CC2)cc1" , report the class its inhibition corresponds to.
bucket 1

For the record "O=C(c1ccc(CN2CCOCC2)cc1)N1CCN(Cc2ccccc2)CC1" , report the class its inhibition corresponds to.
bucket 2

For the record "COc1ccc(CCNC(=O)c2cnccn2)cc1" , report the class its inhibition corresponds to.
bucket 3

For the record "CCOC(=O)CCc1c(C)c2c(C)nn(-c3ccccc3)c2[nH]c1=O" , report the class its inhibition corresponds to.
bucket 2

For the record "CCC(=O)Nc1sc2c(c1C#N)CC(C)(C)NC2(C)C" , report the class its inhibition corresponds to.
bucket 2

For the record CC1CN(C(=O)c2ccccc2C(=O)c2ncc[nH]2)CC(C)O1 (stereo unspecified) , report the class its inhibition corresponds to.
bucket 3

For the record "Cc1nc2nc(SCC(=O)N3CCOCC3)nn2c(C)c1Cc1c(F)cccc1Cl" , report the class its inhibition corresponds to.
bucket 1

For the record "O=C(CCS(=O)(=O)c1ccccc1)Nc1nc2c(s1)CCCC2" , report the class its inhibition corresponds to.
bucket 1
